# Test system: 439559-082-T-J2-PDC spheroid viability;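 also: spheroids exposed to compounds for seven days before readout; 100% = DMSO vehicle control viability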
# measurement_description: Anticancer human tumor 439559-082-T-J2-PDC patient-derived colon adenocarcinoma cell line growth inhibition [POLQ]
# test_settings: second compound 3.16 µM; first compound 1 µM; stronger effect = lower value; spheroids with HUVEC and MSC
The entries below come with measured viability, T/C values attached.
# unit: % | format: bare number

Examples with their reported viability, T/C follow.
molecule="COc1ccc([C@@H](O)c2cc(-c3ncnc4cc(N5CCOCC5)ccc34)c(F)cc2Cl)nn1 + COC1C(OC(N)=O)C(O)C(Oc2ccc3c(O)c(NC(=O)c4ccc(O)c(CC=C(C)C)c4)c(=O)oc3c2C)OC1(C)C" quantitative_readout=92
molecule="CC1COCCN1c1cc(C2(S(C)(=N)=O)CC2)nc(-c2ccnc3[nH]ccc23)n1 (stereo unspecified) + Nc1ccc(C#CCN(C(=O)Cc2ncc(C(F)(F)F)cc2C(F)(F)F)c2ccc(F)cc2)nn1" quantitative_readout=76
molecule="CC1COCCN1c1cc(C2(O)CC3CCC(C2)O3)c2cnn(-c3ccn[nH]3)c2n1 (stereo unspecified) + Nc1ccc(C#CCN(C(=O)Cc2ncc(C(F)(F)F)cc2C(F)(F)F)c2ccc(F)cc2)nn1" quantitative_readout=60.6

State the recorded viability, T/C for this entry: C=CCn1c(=O)c2cnc(Nc3ccc(N4CCN(C)CC4)cc3)nc2n1-c1cccc(C(C)(C)O)n1 + Cc1cccc(N(C)C(=O)C2C(O)CCN2c2nc(C)cc(C(F)(F)F)c2C#N)c1
76.8

Please look up its viability, T/C: C#Cc1c(F)ccc2cc(O)cc(-c3ncc4c(N5CC6CCC(C5)N6)nc(OCC56CCCN5CC(F)C6)nc4c3F)c12 (stereo unspecified) + Nc1ccc(C#CCN(C(=O)Cc2ncc(C(F)(F)F)cc2C(F)(F)F)c2ccc(F)cc2)nn1
59.1

// viability, T/C lookup, key: CC(C)n1c(=O)n(C)c2cnc3cc(F)c(-c4ccc(OCCCN5CCCCC5)nc4)cc3c21 + Cc1cccc(N(C)C(=O)C2C(O)CCN2c2nc(C)cc(C(F)(F)F)c2C#N)c1
112

May I ask what viability, T/C has been recorded for Nc1ccn(C2OC(CO)C(O)C2(F)F)c(=O)n1 (stereo unspecified) + Cc1cccc(N(C)C(=O)C2C(O)CCN2c2nc(C)cc(C(F)(F)F)c2C#N)c1 ?
47.1

Quick check: viability, T/C of Nc1ccn(C2OC(CO)C(O)C2(F)F)c(=O)n1 (stereo unspecified) + Nc1ccc(C#CCN(C(=O)Cc2ncc(C(F)(F)F)cc2C(F)(F)F)c2ccc(F)cc2)nn1 ?
39.1

# get_value(readout='viability, T/C', item= CC1COCCN1c1cc(C2(O)CC3CCC(C2)O3)c2cnn(-c3ccn[nH]3)c2n1 (stereo unspecified) + Cc1cccc(N(C)C(=O)C2C(O)CCN2c2nc(C)cc(C(F)(F)F)c2C#N)c1 )
57

viability, T/C lookup needed for C=CC(=O)N1CCN(c2nc(=O)n(-c3c(C)ccnc3C(C)C)c3nc(-c4c(O)cccc4F)c(F)cc23)C(C)C1 (stereo unspecified) + Cc1cccc(N(C)C(=O)C2C(O)CCN2c2nc(C)cc(C(F)(F)F)c2C#N)c1 , thanks.
95.6

State the recorded viability, T/C for this entry: CC1COCCN1c1cc(C2(S(C)(=N)=O)CC2)nc(-c2ccnc3[nH]ccc23)n1 (stereo unspecified) + Cc1cccc(N(C)C(=O)C2C(O)CCN2c2nc(C)cc(C(F)(F)F)c2C#N)c1
96.6
